molecular target: purified HIV protease (Human immunodeficiency virus type 1 group M subtype B, UniProt P04585); construct: purified HIV protease was incubated with synthetic peptide; assay: HIV-specific protease enzyme test (RP-HPLC analysis of cleavage of a synthetic Gag peptide); conditions: substance concentration causing 50% inhibition of protease activity; synthetic peptide substrate imitating Gag cleavage site
Starred links: 1 amine or outer side, 2 acyl side, 3 side chain; linkers in the order of their positions; H or OH if unused. Non-standard residues stand in square brackets, D forms with d. Residues, ends and D or L forms follow the SMILES beside them. *: point of attachment. X1 = CC(C)C(C[C@H](O)[C@H](CC1CCCCC1)N[*:1])C(=O)[*:2]; NHCH2(2-pyridyl) = c1ccc(CN*)nc1; Boc = CC(C)(C)OC(=O)*; Aib = CC(C)(N)C(=O)O
Item-by-item account of IC50
OBSERVATION_TYPE: IC50 (nM)

| COMPOUND | OBSERVATION_TYPE | VALUE_OBSERVED |
| --- | --- | --- |
| CC[C@H](C)[C@H](NC(=O)C(C[C@H](O)[C@H](CC1CCCCC1)NC(=O)[C@@H](NC(=O)C(C)(C)NC(=O)OC(C)(C)C)C(C)C)C(C)C)C(=O)NCc1ccccn1 (some centres unmarked) | IC50 | 50 |
| CC[C@H](C)[C@H](NC(=O)C(C[C@H](O)[C@H](CC1CCCCC1)NC(=O)[C@H](CC(N)=O)NC(=O)[C@H](Cc1ccccc1)NC(=O)[C@H](CO)NC(=O)C(C)(C)NC(=O)OC(C)(C)C)C(C)C)C(=O)NCc1ccccn1 (some centres unmarked) [III] (Boc-[Aib]SFN[X1]I-{NHCH2(2-pyridyl)}) | IC50 | 5 |
